Measured Colistin MIC in the presence of the compound of individual entries
Tested on: colistin resistant MCR (−) E. Coli strains
Assay: Synergy study: colistin MIC in the presence of compound
Format: cell-based
Conditions: strain 6083672926, MCR(−); compound at 10 μg (Table 2a: 10 ug/ml)
Test Readout: Colistin MIC in the presence of the compound (µg/mL)

>  <Compound>
Cc1cc(OCCCCC[N+](C)(C)C)cc(OCCCCC[N+](C)(C)C)c1 [LC310]

>  <Value Qualifier>
=

>  <Readout Value>
6.25

$$$$
>  <Compound>
CN(C)CCCN(CCCCOc1ccc(C2COc3c(ccc4c3C=CC(C)(C)O4)C2)c(OCCCCN(CCCN(C)C)CCCN(C)C)c1)CCCN(C)C (stereo not shown) [LC095]

>  <Value Qualifier>
=

>  <Readout Value>
12.5

$$$$
>  <Compound>
CCN(CC)CCCCOc1ccc(/C=C/C(=O)c2ccc(OCCCCN(CC)CC)c(CC=C(C)C)c2O)cc1 [LC100]

>  <Value Qualifier>
<

>  <Readout Value>
0.098

$$$$
>  <Compound>
CC1(C)C=Cc2c(ccc3c2OCC(c2ccc(OCC(=O)NC(CCCNC(=N)N)C(N)=O)cc2OCC(=O)NC(CCCNC(=N)N)C(N)=O)C3)O1 (stereo not shown) [LC127]

>  <Value Qualifier>
=

>  <Readout Value>
12.5

$$$$
>  <Compound>
CC(C)=CCc1c(OCC(=O)NC(CCCNC(=N)N)C(N)=O)ccc(C(=O)/C=C/c2ccc(OCC(=O)NC(CCCNC(=N)N)C(N)=O)cc2)c1O (stereo not shown) [LC131]

>  <Value Qualifier>
=

>  <Readout Value>
12.5

$$$$
>  <Compound>
CC[N+](CC)(CC)CCCCOc1ccc(C2COc3c(ccc4c3C=CC(C)(C)O4)C2)c(OCCCC[N+](CC)(CC)CC)c1 (stereo not shown) [LC317]

>  <Value Qualifier>
=

>  <Readout Value>
1.56

$$$$
>  <Compound>
CC(C)=CCc1c(OCCC[N+](C)(C)C)ccc(C(=O)/C=C/c2ccc(OCCC[N+](C)(C)C)cc2)c1O [LC312]

>  <Value Qualifier>
<

>  <Readout Value>
0.0975

$$$$

* * *

System: colistin resistant MCR (−) E. Coli strains
Experiment: MIC, broth microdilution, compound alone
Assay type: cell-based
Details: strain 7033607097, MCR (−)
Measured MIC of individual entries
Test Readout: MIC (µg/mL)

>  <Compound>
CC1(C)C=Cc2c(ccc3c2OCC(c2ccc(OCCCC[n+]4ccccc4)cc2OCCCC[n+]2ccccc2)C3)O1 (stereo not drawn) [LC370]

>  <Value Qualifier>
=

>  <Readout Value>
25

$$$$
>  <Compound>
CC(C)=CCc1c(OCCN(C)CCCN(C)C)ccc(C(=O)/C=C/c2ccc(OCCN(C)CCCN(C)C)cc2)c1O [LC140]

>  <Value Qualifier>
=

>  <Readout Value>
6.25

$$$$
>  <Compound>
CC(C)=CCc1c(OCCCCN(C)CCCN(C)C)ccc(C(=O)/C=C/c2ccc(OCCCCN(C)CCCN(C)C)cc2)c1O [LC098]

>  <Value Qualifier>
=

>  <Readout Value>
6.25

$$$$
>  <Compound>
CCOC(=O)C(CCCNC(=N)N)NC(=O)COc1ccc(/C=C/C(=O)c2ccc(OCC(=O)NC(CCCNC(=N)N)C(=O)OCC)c(CC=C(C)C)c2O)cc1 (stereo not drawn) [LC137]

>  <Value Qualifier>
=

>  <Readout Value>
12.5

$$$$
>  <Compound>
CC[N+](CC)(CC)CCCCOc1ccc(/C=C/C(=O)c2ccc(OCCCC[N+](CC)(CC)CC)c(CC=C(C)C)c2O)cc1 [LC315]

>  <Value Qualifier>
=

>  <Readout Value>
12.5

$$$$
>  <Compound>
CC(C)=CCc1c(OCCCC[n+]2ccccc2)ccc(C(=O)/C=C/c2ccc(OCCCC[n+]3ccccc3)cc2)c1O [LC365]

>  <Value Qualifier>
=

>  <Readout Value>
3.125

$$$$
>  <Compound>
Cc1cc(OCCCCC[N+](C)(C)C)cc(OCCCCC[N+](C)(C)C)c1 [LC310]

>  <Value Qualifier>
>

>  <Readout Value>
50

$$$$
>  <Compound>
COC(=O)C(CCCNC(=N)N)NC(=O)COc1ccc(C2COc3c(ccc4c3C=CC(C)(C)O4)C2)c(OCC(=O)NC(CCCNC(=N)N)C(=O)OC)c1 (stereo not drawn) [LC106]

>  <Value Qualifier>
>

>  <Readout Value>
25

$$$$
>  <Compound>
CC1(C)C=Cc2c(ccc3c2OCC(c2ccc(OCCCCC[N+](C)(C)C)cc2OCCCCC[N+](C)(C)C)C3)O1 (stereo not drawn) [LC316]

>  <Value Qualifier>
>

>  <Readout Value>
50

$$$$

* * *

Measured log10 of MIC of individual entries
Test system: colistin resistant MCR (+) E. Coli strains
Assay: MIC, broth microdilution, compound alone
Format: cell-based
Conditions: strain 6075066346, MCR (+); compound alone
Test Readout: log10 of MIC (log10 of the value in µg/mL)

>  <Compound>
CN(C)CCCN(CCCCOc1ccc(C2COc3c(ccc4c3C=CC(C)(C)O4)C2)c(OCCCCN(CCCN(C)C)CCCN(C)C)c1)CCCN(C)C (stereo not shown) [LC095]

>  <log10 of MIC>
1.70

$$$$
>  <Compound>
CC(C)=CCc1c(OCCCCC[N+](C)(C)C)ccc(C(=O)/C=C/c2ccc(OCCCCC[N+](C)(C)C)cc2)c1O [LC311]

>  <log10 of MIC>
0.49

$$$$
>  <Compound>
CC(C)=CCc1c(OCCCC[n+]2ccn(C)c2)ccc(C(=O)/C=C/c2ccc(OCCCC[n+]3ccn(C)c3)cc2)c1O [LC350]

>  <log10 of MIC>
0.49

$$$$
>  <Compound>
COC(=O)C(CCCNC(=N)N)NC(=O)COc1ccc(/C=C/C(=O)c2ccc(OCC(=O)NC(CCCNC(=N)N)C(=O)OC)c(CC=C(C)C)c2O)cc1 (stereo not shown) [LC101]

>  <log10 of MIC>
1.40

$$$$
>  <Compound>
CC(C)=CCc1c(OCCC[N+](C)(C)C)ccc(C(=O)/C=C/c2ccc(OCCC[N+](C)(C)C)cc2)c1O [LC312]

>  <log10 of MIC>
1.10

$$$$
>  <Compound>
CN(C)CCCN(C)CCCCOc1ccc(C2COc3c(ccc4c3C=CC(C)(C)O4)C2)c(OCCCCN(C)CCCN(C)C)c1 (stereo not shown) [LC096]

>  <log10 of MIC>
1.40

$$$$
>  <Compound>
CC1(C)C=Cc2c(ccc3c2OCC(c2ccc(OCCCC[n+]4ccccc4)cc2OCCCC[n+]2ccccc2)C3)O1 (stereo not shown) [LC370]

>  <log10 of MIC>
1.70

$$$$
>  <Compound>
Cc1cc(OCCCCN(Cc2ccccn2)Cc2ccccn2)cc(OCCCCN(Cc2ccccn2)Cc2ccccn2)c1.[Cl][Zn][Cl].[Cl][Zn][Cl] [Orc-DPA-Zn]

>  <log10 of MIC>
1.70

$$$$
>  <Compound>
CC(C)=CCc1c(OCCN(C)CCCN(C)C)ccc(C(=O)/C=C/c2ccc(OCCN(C)CCCN(C)C)cc2)c1O [LC140]

>  <log10 of MIC>
1.10

$$$$
>  <Compound>
CC(C)=CCc1c(OCCNCCN)ccc(C(=O)/C=C/c2ccc(OCCNCCN)cc2)c1O [LC143]

>  <log10 of MIC>
0.80

$$$$
>  <Compound>
CCN(CC)CCCCOc1ccc(/C=C/C(=O)c2ccc(OCCCCN(CC)CC)c(CC=C(C)C)c2O)cc1 [LC100]

>  <log10 of MIC>
2.00

$$$$
>  <Compound>
CC(C)=CCc1c(OCCCC[n+]2ccccc2)ccc(C(=O)/C=C/c2ccc(OCCCC[n+]3ccccc3)cc2)c1O [LC365]

>  <log10 of MIC>
0.49

$$$$
>  <Compound>
CCOC(=O)C(CCCNC(=N)N)NC(=O)COc1ccc(/C=C/C(=O)c2ccc(OCC(=O)NC(CCCNC(=N)N)C(=O)OCC)c(CC=C(C)C)c2O)cc1 (stereo not shown) [LC137]

>  <log10 of MIC>
1.10

$$$$
>  <Compound>
CC[N+](CC)(CC)CCCCOc1ccc(/C=C/C(=O)c2ccc(OCCCC[N+](CC)(CC)CC)c(CC=C(C)C)c2O)cc1 [LC315]

>  <log10 of MIC>
0.80

$$$$
>  <Compound>
CC[N+](CC)(CC)CCCCOc1ccc(C2COc3c(ccc4c3C=CC(C)(C)O4)C2)c(OCCCC[N+](CC)(CC)CC)c1 (stereo not shown) [LC317]

>  <log10 of MIC>
1.70

$$$$
>  <Compound>
CCN(CC)CCCCOc1ccc(C2COc3c(ccc4c3C=CC(C)(C)O4)C2)c(OCCCCN(CC)CC)c1 (stereo not shown) [LC105]

>  <log10 of MIC>
1.40

$$$$
>  <Compound>
CC(C)=CCc1c(OCCCCN(CCCN(C)C)CCCN(C)C)ccc(C(=O)/C=C/c2ccc(OCCCCN(CCCN(C)C)CCCN(C)C)cc2)c1O [LC097]

>  <log10 of MIC>
1.40

$$$$
>  <Compound>
CC(C)=CCc1c(OCCCCN(C)CCCN(C)C)ccc(C(=O)/C=C/c2ccc(OCCCCN(C)CCCN(C)C)cc2)c1O [LC098]

>  <log10 of MIC>
0.80

$$$$
>  <Compound>
CC1(C)C=Cc2c(ccc3c2OCC(c2ccc(OCCCCC[N+](C)(C)C)cc2OCCCCC[N+](C)(C)C)C3)O1 (stereo not shown) [LC316]

>  <log10 of MIC>
1.70

$$$$
